- Test system: primary human fibroblasts derived from IPF patients (LL29 cells)
- procedure-summary: Inhibition of the fibrotic process in TGF-β1 treated IPF patient fibroblasts (αSMA staining)
- Type: cell-based
- conditions-used: Fibroblast, 96 h, LL29 cells treated with TGF-β1 (20 ng/mL), 4 days, read-out: Inhibition of fibrosis EC50
Give EC50 for every item shown.

Worked cases, EC50 given:
# chemical-string, system, EC50
measured = [
    ("FC1(F)CCN(Cc2cncc(-c3cnc4[nH]nc(-c5nc6c(N7CCCCC7)ccnc6[nH]5)c4c3)c2)C1", "primary human fibroblasts derived from IPF patients (LL29 cells)", "≤ 9 nM"),
    ("c1cncc(-c2cnc3[nH]nc(-c4nc5c(-c6cccnc6)ccnc5[nH]4)c3c2)c1", "primary human fibroblasts derived from IPF patients (LL29 cells)", "≥ 9990 nM"),
]

Next compound, EC50 to be filled in.
The reported EC50 of the compound "Cc1cn(-c2ccnc3[nH]c(-c4n[nH]c5ncc(-c6cncc(CN7CCCC7)c6)cc45)nc23)cn1" was ≤ 9 nM

Where do these numbers come from? They come from patent US10526347B2.
